Entries annotated with measured Ki
- system.tested: human GPR139 receptor (Homo sapiens, UniProt Q6DWJ6)
- Construct: expressed in transfected cells; host or cells: T-REx-CHO (Thermo Fisher Scientific), doxycycline-induced
- Sequence (Q6DWJ6 1-353): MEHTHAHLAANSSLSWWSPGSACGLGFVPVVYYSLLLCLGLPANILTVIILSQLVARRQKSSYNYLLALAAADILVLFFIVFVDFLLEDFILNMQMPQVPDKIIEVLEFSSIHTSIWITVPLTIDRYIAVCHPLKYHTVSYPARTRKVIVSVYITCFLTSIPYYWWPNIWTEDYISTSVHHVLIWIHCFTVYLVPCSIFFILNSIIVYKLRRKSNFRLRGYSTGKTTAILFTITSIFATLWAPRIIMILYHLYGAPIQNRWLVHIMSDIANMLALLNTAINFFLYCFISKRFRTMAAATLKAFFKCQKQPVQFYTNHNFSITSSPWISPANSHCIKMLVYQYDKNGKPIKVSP
- assay.name: GPR139 Competition Binding (membrane-based, tritium-labeled ligand)
- measurement.conditions: T-REx-CHO membranes with human GPR139; 6.5 nM tritium-labeled ligand; 11-point curve, 30 μM maximum concentration; read-out: GPR139 Binding Affinity (pKi) (converted)
Express the result in nM but write the number alone.

These recorded examples may help you get a feel for the data.
[
  {
    "molecule": "Cc1ccc([C@H](C)NC(=O)Cn2nc(C)c3c(C)nn(C4CC4)c3c2=O)c(F)c1 [Example 69]",
    "system.tested": "human GPR139 receptor (Homo sapiens, UniProt Q6DWJ6)",
    "unit.info": "nM",
    "Ki": 0.447
  },
  {
    "molecule": "Cc1ccc([C@H](C)NC(=O)Cn2ncc3c(C4CC4)nn(C)c3c2=O)cc1 [Example 149]",
    "system.tested": "human GPR139 receptor (Homo sapiens, UniProt Q6DWJ6)",
    "unit.info": "nM",
    "Ki": 219
  }
]

Q. State the recorded Ki for this entry: [2H]C([2H])([2H])c1ccc([C@H](C)NC(=O)Cn2ncc3c(c(C)nn3C3CC3)c2=O)cc1 [Example 167]
A. 316

Q. What does the data say about its Ki? Entry: [2H]C([2H])([2H])c1ccc([C@H](C)NC(=O)Cn2ncc3c(c(C)nn3C(C)C)c2=O)cc1 [Example 168]
A. 380

Q. Need Ki, item Cc1nn(CC(=O)N[C@@H](C)c2ccc(C(F)(F)F)cc2)c(=O)c2c(C3CC3)nn(C)c12 [Example 120]
A. 17.4

Q. Which value of Ki has been reported for Cc1nn(C2CC2)c2cnn(CC(=O)NC(C)c3ccc4c(c3)OCCO4)c(=O)c12 (centres unmarked) [Example 106] in the records?
A. 2000

Q. Ki for Cc1nn(C)c2c(C)nn(CC(=O)N[C@@H](C)c3ccc(OC(F)(F)F)cc3)c(=O)c12 [Example 112] ?
A. 263

Q. Item under review: COc1ccc([C@H](C)NC(=O)Cn2nc(C)c3c(c(C(C)C)nn3C)c2=O)cc1F [Example 10] . Reported Ki?
A. 120

Attribution: patent US12370192B2
